experiment.notes: Prevalence of adverse effects in randomised placebo controlled trials (treated minus control)
Format: in vivo, human
applied.conditions: daily dose: hydrochlorothiazide 12.5 mg, atenolol 25 mg, enalapril 5 mg, atorvastatin 10 mg, aspirin 75 mg, folic acid 0.8 mg
outcome.measure: Prevalence of any adverse effect in randomised trials (treated minus control) (%^a)
Your answer is read as %^a, so omit the unit and give the number.

# count of solved cases: 2
CCOC(=O)[C@H](CCc1ccccc1)N[C@@H](C)C(=O)N1CCC[C@H]1C(=O)O [Enalapril]	2.1
NS(=O)(=O)c1cc2c(cc1Cl)NCNS2(=O)=O [Hydrochlorothiazide]	1.4

Now let's try a different one.
Task item: For the compound shown here, CC(C)NCC(O)COc1ccc(CC(N)=O)cc1 (stereo not drawn) [Atenolol] , give the reported Prevalence of any adverse effect in randomised trials (treated minus control).
Reply: 5.6

---

Catalogue of Prevalence of any adverse effect in randomised trials (treated minus control) values
experiment.notes: Prevalence of adverse effects in randomised placebo controlled trials (treated minus control)
Assay type: in vivo, human
applied.conditions: daily dose: hydrochlorothiazide 12.5 mg, atenolol 25 mg, enalapril 5 mg, atorvastatin 10 mg, aspirin 75 mg, folic acid 0.8 mg
Marks after values point to notes of the source that are not given here.

Examples with answers:
Nc1nc2ncc(CNc3ccc(C(=O)N[C@@H](CCC(=O)O)C(=O)O)cc3)nc2c(=O)[nH]1 [Folic acid]	<0.1%
CC(C)c1c(C(=O)Nc2ccccc2)c(-c2ccccc2)c(-c2ccc(F)cc2)n1CC[C@@H](O)C[C@@H](O)CC(=O)O [Atorvastatin]	0.1%

Next molecule, Prevalence of any adverse effect in randomised trials (treated minus control) to be filled in.
Task item: Consider the molecule shown here: CC(=O)Oc1ccccc1C(=O)O [Aspirin] What is its recorded Prevalence of any adverse effect in randomised trials (treated minus control)?
Reply: 1.8%^b
